The values you see were collected from PubChem BioAssay (EPA / NIEHS).

- experimental_system: Aryl hydrocarbon receptor (Homo sapiens) (UniProt P35869)
- Sequence (P35869 whole entry, looked up): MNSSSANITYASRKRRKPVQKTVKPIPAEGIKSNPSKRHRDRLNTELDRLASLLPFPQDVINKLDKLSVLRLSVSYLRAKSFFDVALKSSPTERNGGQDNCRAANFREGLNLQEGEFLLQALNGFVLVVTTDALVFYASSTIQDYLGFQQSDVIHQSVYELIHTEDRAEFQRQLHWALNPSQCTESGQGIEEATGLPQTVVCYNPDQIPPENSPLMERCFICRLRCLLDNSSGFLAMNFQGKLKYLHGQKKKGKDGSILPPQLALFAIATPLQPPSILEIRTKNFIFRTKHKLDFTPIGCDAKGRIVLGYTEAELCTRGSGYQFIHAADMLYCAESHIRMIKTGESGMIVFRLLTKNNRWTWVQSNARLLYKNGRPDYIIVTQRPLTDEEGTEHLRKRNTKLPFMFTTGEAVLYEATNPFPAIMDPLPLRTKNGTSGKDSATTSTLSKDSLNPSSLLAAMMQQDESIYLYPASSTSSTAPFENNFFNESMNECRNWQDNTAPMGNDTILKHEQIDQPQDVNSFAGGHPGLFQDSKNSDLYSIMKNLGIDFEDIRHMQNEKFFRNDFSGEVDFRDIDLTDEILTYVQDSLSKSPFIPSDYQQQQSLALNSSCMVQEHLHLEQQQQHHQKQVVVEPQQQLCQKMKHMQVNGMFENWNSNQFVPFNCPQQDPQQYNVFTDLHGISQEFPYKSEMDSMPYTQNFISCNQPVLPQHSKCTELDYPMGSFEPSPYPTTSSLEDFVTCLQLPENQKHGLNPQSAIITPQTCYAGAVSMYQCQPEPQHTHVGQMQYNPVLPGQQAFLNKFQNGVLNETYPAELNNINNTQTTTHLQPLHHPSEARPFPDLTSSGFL
- experiment_summary: ATG_Ahr_CIS: Attagene CIS-FACTORIAL HepG2 Assay for human Aryl Hydrocarbon Receptor (Ahr) (AID 2282930)
- reported_conditions: HepG2 AhR cis-factorial reporter transcription; actives raise or lower the signal
Activity calls are given as the source filed them. The calls were made as follows: active = hit-call score of the fitted dose curve at least 0.9, where 1 is the maximum; inactive = score below 0.9.
Outcomes: active, inactive

> print(dat)
                                   compound  class.assignment
1                   C=CC(=O)NC(C)(C)CC(C)=O          inactive
2                   O=c1nc(O)n(Cl)c(=O)n1Cl          inactive
3             COP(=S)(OC)Oc1cc(Cl)c(I)cc1Cl          inactive
4                               C=CCOC(N)=O          inactive
5  CC(C)[C@@H](Nc1ccc(C(F)(F)F)cc1Cl)C(=O)OC(C#N)c1cccc(Oc2ccccc2)c1 (some centres not stated)          inactive
6                   Clc1ccc(C(Cl)(Cl)Cl)cn1            active
7                         CCCCCCCCCCCCN(C)C          inactive
